Test system: MCF7
Experiment: NCI tumour cell line growth inhibition, 48 h
The source made the active and inactive calls. Cut-off read from the data, not from the text of the source: active = GI50 up to about 1.1 µM and inactive = higher.
Permitted responses: active, inactive

Hi team, can someone confirm the assay call for CC(=O)OCC1OC(N2C(=O)/C(=C\c3ccc(Cl)cc3)C(N)=Nc3ccccc32)C(OC(C)=O)C(OC(C)=O)C1OC(C)=O (configuration not stated) ?
inactive

Here is the next compound: COc1cccc2c1C1(O)C2CCCCCCCCCC12OCCCO2 (configuration not stated)
inactive

Here is the next compound: NS(=O)(=O)c1ccc(/N=N/c2c(O)c(C(=O)O)cc3ccccc23)cc1
inactive

Here is the next compound: O=C(O)/C=C/c1ccc(OS(=O)(=O)O)cc1
inactive

Here is the next compound: Nc1ncnc2c1ncn2[C@@H]1O[C@H](C(=O)O)[C@@H](O)[C@H]1O
inactive

Here is the next compound: COc1ccc(C2C3CCc4ccccc4C3=NN2S(=O)(=O)c2ccc(Cl)cc2)cc1 (configuration not stated)
inactive

Here is the next compound: COc1cccc(NC(=O)CC(=O)N2N=C(C)C(/N=N/c3ccc(C(=O)O)cc3)C2=O)c1 (configuration not stated)
inactive

Here is the next compound: S=C(c1c[nH]c2ccccc12)N1CCOCC1
inactive

Here is the next compound: CCOc1cccc(-c2cc(O)c3cc4c(cc3n2)OCO4)c1
active

Here is the next compound: CC(=O)NC(Cc1ccccc1)NC(=O)O (configuration not stated)
inactive

Here is the next compound: Cc1nc(N)c(N2CCNCC2)c(O)n1
inactive

Here is the next compound: COc1ccc(Cc2cc(OC)c(OC)c(OC)c2)cc1
active

Here is the next compound: Nc1nc(NCC2(CO)CC(CCc3ccccc3)C2)cc(=O)[nH]1 (configuration not stated)
inactive

Here is the next compound: OC[C@H]1CCCC1O (some centres not stated)
inactive

Here is the next compound: C/C(=N\Nc1nc2ccccc2o1)c1ncccn1
active

Here is the next compound: Cc1ccnc2[nH]c(-c3ccccc3)cc(=O)c12
active

Here is the next compound: O=C1c2ccccc2C(=O)c2c(NCC(O)CO)ccc(NCC(O)CO)c21 (configuration not stated)
inactive

Here is the next compound: O=C1OC(c2ccc(O)c(-c3ccccc3)c2)(c2ccc(O)c(-c3ccccc3)c2)c2c(Cl)c(Cl)c(Cl)c(Cl)c21
inactive

Here is the next compound: [O-][n+]1c(CN2CCCCC2)nc2cccc3c2c1-c1ccccc1-3
inactive

Here is the next compound: On1c(-c2ccccc2)nc2ccccc2c1=S
inactive

Here is the next compound: CC1CCCN(CP(=O)(c2ccccc2)c2ccccc2)C1 (configuration not stated)
inactive

Here is the next compound: c1ccc(C(c2cccc3c2ccc2ccccc23)C(c2ccccc2)c2cccc3c2ccc2ccccc23)cc1 (configuration not stated)
inactive
